This collection of values is drawn from patent US20260070922A1.

- testedSystem: Orexin type 1 (OX1R) receptor (Homo sapiens, UniProt O43613)
- Construct: expressed in transfected cells; host or cells: CHO cells (G418 selection)
- Sequence (O43613 1-425): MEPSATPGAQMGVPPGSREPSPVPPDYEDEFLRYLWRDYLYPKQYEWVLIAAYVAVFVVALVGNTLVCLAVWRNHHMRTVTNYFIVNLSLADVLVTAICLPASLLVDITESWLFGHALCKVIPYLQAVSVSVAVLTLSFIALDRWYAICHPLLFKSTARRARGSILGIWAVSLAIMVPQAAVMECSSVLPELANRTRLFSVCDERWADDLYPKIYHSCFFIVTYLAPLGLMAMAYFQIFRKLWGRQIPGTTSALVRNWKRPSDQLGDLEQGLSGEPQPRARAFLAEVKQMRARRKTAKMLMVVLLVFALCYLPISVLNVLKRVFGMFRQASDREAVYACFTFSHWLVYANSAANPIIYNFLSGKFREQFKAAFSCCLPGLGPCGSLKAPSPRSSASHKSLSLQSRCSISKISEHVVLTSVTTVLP
- assayNotes: In vitro orexin antagonism assay: intracellular calcium measurement (FLIPR), orexin-A 3 nM as agonist
- Format: cell-based
- runConditions: read-out: OX1R, % Inh. @ 1 uM
Recorded inhibition at 1 µM for the following compounds
# output: bare number, implied unit %

IN: Recorded inhibition at 1 µM for O=C(c1c(-c2ccccc2F)nn2c1COCC2)N1[C@H](Cn2ccc(-c3ccc(F)cn3)n2)C[C@@H]2C[C@@H]21 with Orexin type 1 (OX1R) receptor (Homo sapiens, UniProt O43613), please?
OUT: 23

IN: Check O=C(c1c(-c2ccccn2)nn2ccccc12)N1CCC[C@H]1Cn1ccc(-c2ccc(F)cn2)n1 too.
OUT: 99

IN: Check O=C(c1c(-c2ccc(F)cc2)nn2ccccc12)N1CCC[C@H]1CNc1ccc(C(F)(F)F)cn1 too.
OUT: 98.2

IN: Check O=C(c1c(-c2ccccc2)nc2ncccn12)N1CCCC[C@H]1COc1ccc(C(F)(F)F)cn1 too.
OUT: 59.5

* * *

Recorded Kb for the following compounds
- testedSystem: Orexin type 1 (OX1R) receptor (Homo sapiens)
- Construct: expressed in transfected cells; host or cells: CHO cells (G418 selection)
- assayNotes: In vitro orexin antagonism assay: intracellular calcium measurement (FLIPR), orexin-A 3 nM as agonist
- Type: cell-based
- runConditions: second value of IC50/Kb cell
Output should be the measured figure followed by the unit it is expressed in.

Look over these answered cases.
smilesRecord: O=C(c1nn2ccccc2c1-c1ccccn1)N1CCC[C@H]1Cn1ccc(-c2ccc(F)cn2)n1
Kb: 4 nM
--
smilesRecord: O=C(c1c(-c2ccccc2)nc2ccc(F)cn12)N1CCC[C@H]1Cn1ccc(-c2ccc(F)cc2)n1
Kb: 2 nM
--
smilesRecord: O=C(c1nn2ccccc2c1-c1ccccn1)N1CCC[C@H]1Cn1ccc(-c2ccccn2)n1
Kb: 0.9 nM

Attention now turns to another entry.
IN: Report Kb for O=C(c1nc2ccccn2c1-c1ccccc1)N1[C@@H]2CC[C@@H](C2)[C@H]1COc1ccc(C(F)(F)F)cn1 please.
OUT: 41 nM

* * *

- testedSystem: Orexin type 1 (OX1R) receptor (Homo sapiens)
- Construct: expressed in transfected cells; host or cells: CHO cells (G418 selection)
- assayNotes: In vitro orexin antagonism assay: intracellular calcium measurement (FLIPR), orexin-A 3 nM as agonist
- Format: cell-based
- runConditions: read-out: OX1R, % Inh. @ 1 uM
Recorded inhibition at 1 µM for the following compounds
Output should be the measured figure followed by the unit it is expressed in.

Look over these answered cases.
smilesRecord: O=C(c1c(-c2ccccc2)nc2ncccn12)N1CCC[C@H]1COc1ccc(C(F)(F)F)cn1
inhibition at 1 µM: 18.9%
--
smilesRecord: O=C(c1nc2n(c1-c1ccccn1)CCOC2)N1CCC[C@H]1Cc1nc(-c2ccccn2)no1
inhibition at 1 µM: 25%
--
smilesRecord: [2H]C1([2H])CC[C@@]([2H])(Cn2ccc(-c3ccc(F)cc3)n2)N1C(=O)c1c(-c2ncccn2)nn2ccccc12
inhibition at 1 µM: 92%

IN: Report inhibition at 1 µM for O=C(c1nn2cccnc2c1-c1ccccn1)N1CCC[C@H]1Cn1cc(-c2ccccn2)cn1 please.
OUT: 86%

IN: Check O=C(c1nc2n(c1-c1ccccn1)CCOC2)N1CCC[C@H]1COc1ccc(C(F)(F)F)cn1 too.
OUT: 42%

IN: Check [2H]C1([2H])CC[C@@]([2H])(COc2ccc(C(F)(F)F)cn2)N1C(=O)c1nn2c(c1-c1ccccc1)COCC2 too.
OUT: 100%

IN: Check O=C(c1c(-c2ccccc2)nc2ccc(F)cn12)N1[C@H](Cn2ccc(-c3ccc(F)cn3)n2)C[C@@H]2C[C@@H]21 too.
OUT: 45%

* * *

- testedSystem: human k-opioid receptor (kOR) (Homo sapiens, UniProt P41145)
- Construct: expressed in transfected cells; host or cells: RBL cells (membrane homogenates)
- Sequence (P41145 whole entry): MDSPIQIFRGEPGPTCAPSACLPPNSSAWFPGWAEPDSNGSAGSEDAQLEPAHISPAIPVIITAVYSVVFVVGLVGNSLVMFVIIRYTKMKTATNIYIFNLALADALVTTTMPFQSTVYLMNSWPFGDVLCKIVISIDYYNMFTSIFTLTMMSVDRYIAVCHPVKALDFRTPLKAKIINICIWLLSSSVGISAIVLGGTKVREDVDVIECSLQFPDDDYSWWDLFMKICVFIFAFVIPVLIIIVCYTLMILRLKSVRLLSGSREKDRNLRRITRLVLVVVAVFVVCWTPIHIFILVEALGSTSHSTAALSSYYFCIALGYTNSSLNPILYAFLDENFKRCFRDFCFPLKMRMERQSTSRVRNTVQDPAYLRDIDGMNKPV
- assayNotes: Human k-opioid (KOP) receptor (agonist radioligand [3H]U-69593) binding assay, transfected RBL cell membranes
- runConditions: second value of IC50/Ki cell
Recorded pKi for the following compounds
Lab note — pKi values are minus log10 of concentrations in M.

Look over these answered cases.
smilesRecord: O=C(c1c(-c2ccccc2)nn2c1COCC2)N1CCC[C@H]1Cn1ccc(-c2ccc(F)cc2)n1
valueKind: pKi
reportedResult: 6.62
--
smilesRecord: O=C(c1c(-c2ccccc2F)nn2c1COCC2)N1CCC[C@H]1Cn1ccc(-c2ccc(F)cc2)n1
valueKind: pKi
reportedResult: 6.92
--
smilesRecord: O=C(c1c(-c2ccc(F)cc2)nn2ccccc12)N1CCC[C@H]1Cn1ccc(-c2ccc(F)cc2)n1
valueKind: pKi
reportedResult: 6.59
--
smilesRecord: O=C(c1c(-c2ccc(F)cc2)nc2ccccn12)N1CCC[C@H]1Cn1ccc(-c2ccc(F)cc2)n1
valueKind: pKi
reportedResult: 6.82
--
smilesRecord: O=C(c1c(-c2ccccc2)nn2ccccc12)N1CCC[C@H]1Cn1ccc(-c2ccc(F)cc2)n1
valueKind: pKi
reportedResult: 6.59
--
smilesRecord: O=C(c1c(-c2ccc(F)cc2)nn2ccccc12)N1CCC[C@H]1Cn1ccc(-c2ccc(C(F)(F)F)cc2)n1
valueKind: pKi
reportedResult: 6.60
--
smilesRecord: O=C(c1c(-c2ccccc2F)nc2ccccn12)N1CCC[C@H]1Cn1ccc(-c2ccc(F)cc2)n1
valueKind: pKi
reportedResult: 6.96

Attention now turns to another entry.
IN: Report pKi for O=C(c1c(-c2ccccc2)nn2ccccc12)N1CCC[C@H]1Cn1ccc(-c2ccc(C(F)(F)F)cc2)n1 please.
OUT: 6.68

* * *

- testedSystem: human orexin-2 receptor (OX2R) (Homo sapiens)
- Construct: expressed in transfected cells; host or cells: CHO cells (G418 selection)
- Sequence (O43614 1-444): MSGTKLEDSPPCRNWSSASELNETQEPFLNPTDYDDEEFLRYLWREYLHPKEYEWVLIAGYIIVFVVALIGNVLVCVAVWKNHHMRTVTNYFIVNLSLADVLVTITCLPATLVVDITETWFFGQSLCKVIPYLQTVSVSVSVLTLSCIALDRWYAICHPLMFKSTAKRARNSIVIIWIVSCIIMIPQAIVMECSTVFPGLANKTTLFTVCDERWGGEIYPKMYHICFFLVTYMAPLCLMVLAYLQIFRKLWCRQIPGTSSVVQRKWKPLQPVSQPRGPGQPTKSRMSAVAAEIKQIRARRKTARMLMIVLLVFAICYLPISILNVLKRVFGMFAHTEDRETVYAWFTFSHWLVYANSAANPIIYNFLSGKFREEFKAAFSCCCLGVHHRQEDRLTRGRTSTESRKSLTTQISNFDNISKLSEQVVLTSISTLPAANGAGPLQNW
- assayNotes: In vitro orexin antagonism assay: intracellular calcium measurement (FLIPR), orexin-A 3 nM as agonist
- Type: cell-based
- runConditions: read-out: OX2R, % Inh. @ 1 uM
- Method: Antagonistic activities on both orexin receptors have been measured for each example compound using the following procedure: In Vitro Orexin Antagonism Measurement Assay: Intracellular Calcium Measurements: […] Within the Fluorescent Imaging Plate Reader (FLIPR Tetra, Molecular Devices), antagonists are added to the plate in a volume of 10 μL/well, incubated for 120 min and finally 10 μL/well of agonist is added. […] The calculated IC50values may fluctuate depending on the daily cellular assay performance. […]
Recorded inhibition at 1 µM for the following compounds
# output: bare number, implied unit %

Look over these answered cases.
smilesRecord: O=C(c1nc2n(c1-c1ccccn1)CCOC2)N1CCC[C@H]1COc1ccc(C(F)(F)F)cn1
unitOfMeasure: %
inhibition at 1 µM: 10
//
smilesRecord: C[C@@H]1CCCN(C(=O)c2c(-c3ccccc3)nn3ccccc23)[C@@H]1CNc1ncc(F)cn1
unitOfMeasure: %
inhibition at 1 µM: -3
//
smilesRecord: O=C(c1c(-c2ccccc2)nn2ccccc12)N1CCC[C@H]1CNc1ccc(F)cn1
unitOfMeasure: %
inhibition at 1 µM: 14.8
//
smilesRecord: O=C(c1nn2c(c1-c1ccccn1)OCCC2)N1CCC[C@H]1Cn1ccc(-c2ccccn2)n1
unitOfMeasure: %
inhibition at 1 µM: 29
//
smilesRecord: C[C@@]1(COc2ccc(C(F)(F)F)cn2)CCCN1C(=O)c1nn2c(c1-c1ccccc1)OCCC2
unitOfMeasure: %
inhibition at 1 µM: 16
//
smilesRecord: C[C@@H]1CCCN(C(=O)c2c(-c3ccc(F)cc3)nn3ccccc23)[C@@H]1CNc1ccc(C(F)(F)F)cn1
unitOfMeasure: %
inhibition at 1 µM: 7.1
//
smilesRecord: O=C(c1nc2ccccn2c1-c1ccccc1)N1CCC[C@H]1Cn1cc(-c2ccccn2)cn1
unitOfMeasure: %
inhibition at 1 µM: 45
//
smilesRecord: O=C(c1nc2ccccn2c1-c1ccccn1)N1CCC[C@H]1COc1ccc(C(F)(F)F)cn1
unitOfMeasure: %
inhibition at 1 µM: 12
//
smilesRecord: O=C(c1c(-c2ccccc2F)nn2ccccc12)N1CCC[C@H]1COc1ccc(C(F)(F)F)cn1
unitOfMeasure: %
inhibition at 1 µM: 67
//
smilesRecord: C[C@@]1(COc2cnc(C(F)(F)F)cn2)CCCN1C(=O)c1nn2c(c1-c1ccccc1)COCC2
unitOfMeasure: %
inhibition at 1 µM: 0

IN: Recorded inhibition at 1 µM for C[C@@]1(Cn2ccc(-c3ccccn3)n2)CCCN1C(=O)c1nn2c(c1-c1ccccc1)COCC2 with human orexin-2 receptor (OX2R) (Homo sapiens), please?
OUT: 5

IN: Check O=C(c1nn2c(c1-c1ccccn1)OCCC2)N1[C@H](Cn2ccc(-c3ccc(F)cn3)n2)C[C@@H]2C[C@@H]21 too.
OUT: 14

IN: Check O=C(c1c(-c2ccccc2)nn2c1COCC2)N1CCCC[C@H]1COc1ccc(C(F)(F)F)cn1 too.
OUT: 25.3

IN: Check C[C@@]1(COc2cnc(C(F)(F)F)cn2)CCCN1C(=O)c1nn2ccccc2c1-c1ccccc1 too.
OUT: 23

IN: Check O=C(c1nn2c(c1-c1ccccn1)OCCC2)N1CCC[C@H]1Cc1nc(-c2ccccn2)no1 too.
OUT: 8

IN: Check O=C(c1nc2ccccn2c1-c1ccccc1)N1CCC[C@H]1Cn1cc(-c2ccc(F)cn2)cn1 too.
OUT: 51

IN: Check C[C@@]1(COc2ccc(C(F)(F)F)cn2)CCCN1C(=O)c1nn2c(c1-c1ccccc1)COCC2 too.
OUT: 5
